Test: Cytotoxicity against oncogenic KRAS knockout human HCT116 cells assessed as reduction in cell viability measured after 48 hrs by MTT assay
Format: functional, cell-based
Conditions: HCT-116, 48 h
MEASURED_PARAMETER: IC50 (µM)
Numbers only, in µM.

Q. Find the recorded IC50 belonging to "CC[C@H](C)[C@@H](C(=O)N1C(=O)C=C(OC)[C@@H]1Cc1ccccc1)N(C)C(=O)[C@H](C(C)C)N(C)C(=O)[C@@H](NC(=O)[C@H](C(C)C)N(C)C)C(C)C" and report it.
A. 8.6

----------
Experiment: Cytotoxicity against human HCT116 cells assessed as reduction in cell viability measured after 48 hrs by MTT assay
Format: functional, cell-based
Conditions: HCT-116, 48 h
MEASURED_PARAMETER: pIC50
Numbers only, as −log10 of the molar value.

Q. Find the recorded pIC50 belonging to "CC[C@H](C)[C@@H](C(=O)N1C(=O)C=C(OC)[C@@H]1Cc1ccccc1)N(C)C(=O)[C@H](C(C)C)N(C)C(=O)[C@@H](NC(=O)[C@H](C(C)C)N(C)C)C(C)C" and report it.
A. 5.41
